# Target Under Test: human ether-à-go-go-related gene (hERG) potassium channel (human, UniProt Q12809);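 also: peak tail current of the secondary pulse compared with the same well before compound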
# Sequence (Q12809 whole entry, looked up): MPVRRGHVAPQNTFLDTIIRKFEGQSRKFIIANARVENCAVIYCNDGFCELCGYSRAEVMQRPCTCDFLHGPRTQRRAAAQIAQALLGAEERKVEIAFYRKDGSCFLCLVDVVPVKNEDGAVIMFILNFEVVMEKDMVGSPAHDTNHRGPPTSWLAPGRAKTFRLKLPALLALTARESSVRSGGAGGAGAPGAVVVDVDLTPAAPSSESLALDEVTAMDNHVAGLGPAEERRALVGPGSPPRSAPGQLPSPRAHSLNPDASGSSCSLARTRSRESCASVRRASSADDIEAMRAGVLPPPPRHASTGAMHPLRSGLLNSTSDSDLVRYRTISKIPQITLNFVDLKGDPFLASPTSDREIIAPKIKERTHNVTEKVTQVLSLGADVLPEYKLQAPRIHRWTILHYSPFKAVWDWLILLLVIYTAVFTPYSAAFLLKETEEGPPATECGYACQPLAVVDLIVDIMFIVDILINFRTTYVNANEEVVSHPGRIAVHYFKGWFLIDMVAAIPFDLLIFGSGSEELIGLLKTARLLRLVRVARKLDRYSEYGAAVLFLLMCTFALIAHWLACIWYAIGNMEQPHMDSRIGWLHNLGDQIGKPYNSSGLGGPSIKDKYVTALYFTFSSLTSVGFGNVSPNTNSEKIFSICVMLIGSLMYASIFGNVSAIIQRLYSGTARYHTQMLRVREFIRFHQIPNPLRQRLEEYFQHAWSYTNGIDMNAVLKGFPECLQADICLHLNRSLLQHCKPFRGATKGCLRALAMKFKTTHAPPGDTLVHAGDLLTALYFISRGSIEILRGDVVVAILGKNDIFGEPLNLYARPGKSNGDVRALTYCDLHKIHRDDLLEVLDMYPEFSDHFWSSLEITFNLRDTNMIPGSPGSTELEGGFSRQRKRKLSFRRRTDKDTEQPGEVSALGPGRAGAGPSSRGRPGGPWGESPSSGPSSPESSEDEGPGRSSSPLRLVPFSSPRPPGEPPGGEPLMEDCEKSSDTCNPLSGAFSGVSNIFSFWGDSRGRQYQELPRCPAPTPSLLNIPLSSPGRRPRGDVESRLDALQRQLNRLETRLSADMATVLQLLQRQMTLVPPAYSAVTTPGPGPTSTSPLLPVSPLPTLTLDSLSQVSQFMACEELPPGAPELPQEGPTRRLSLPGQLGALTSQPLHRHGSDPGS
# Experiment: primary screen, population patch clamp on CHO cells stably expressing hERG; higher = less effect of the substance
About 14,000 (4.5%) of roughly 310,000 compounds showed an effect of 50% or more. Effects have a minus sign here. Many of the other results were omitted from the sample, so strong results are more common in it than they were.
Classification field: enter True for hERG current change (%, negative = inhibition) at 10uM values not below -10%, False for values below it.

Consider the following illustrative entries.
>>> print(df.to_string())
                                   compound  label_class
0  O=C(NCc1ccccc1Cl)C1CCN(c2ncnc3c2nc2n3CCCCC2)CC1        False
1  CC(C(=O)Nc1ccccc1F)N1CCN(C)CC1.O=C(O)C(=O)O (stereo not drawn)         True
2  Cc1cc(C)cc(NC(=O)CSc2nnc(-c3ccccc3)n2N)c1         True

Is hERG current change (%, negative = inhibition) at 10uM for COc1cc(CN2CCC(C(N)=O)CC2)ccc1OCc1ccccc1.O=C(O)C(=O)O at or above -10%?
False

Entry O=C1NC(=S)N/C1=C/c1cc([N+](=O)[O-])ccc1N1CCOCC1 please
False

---

# Target Under Test: human ether-à-go-go-related gene (hERG) potassium channel (human);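 also: peak tail current of the secondary pulse compared with the same well before compound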
# Experiment: primary screen, population patch clamp on CHO cells stably expressing hERG; higher = less effect of the substance
In all, about 310,000 compounds went through this assay and about 14,000 (4.5%) showed an effect of 50% or more. The effect is printed as a negative number. Shown is part of a subset that was picked to be rich in strong results.
Measurement Label: hERG current change (%, negative = inhibition) at 10uM (%)
Only the number, expressed in %, is required.

Worked examples, 3 compounds total:
In [3]: df
Out[3]:
                                   compound                         target_under_test  quantitative_result
0          NC(=O)c1cn(C2CCCCC2)c2ccccc2c1=O  human ether-à-go-go-related gene (hERG) potassium channel (human)                -65.2
1  O=C(COC(=O)c1cc(Cl)ccc1[N+](=O)[O-])NCc1ccc(Cl)cc1Cl  human ether-à-go-go-related gene (hERG) potassium channel (human)                -11.8
2  CC(C)(C)c1ccc(-n2ncc3c2CCCC3NC(=O)c2csnn2)cc1 (centres unmarked)  human ether-à-go-go-related gene (hERG) potassium channel (human)                 1.88

Quick one: hERG current change (%, negative = inhibition) at 10uM for CCOC(=O)c1cnc2c(cnn2C)c1Oc1ccc(OC)cc1 ?
-43

Entry Cc1cccc(NC(=O)N2CCN(Cc3ccc(Cl)cc3)CC2)c1 please
-50.7

Entry Cc1ccccc1CSc1nnc(-c2cnccn2)n1C please
7.84

Entry Cn1c2ccccc2c2c(C(=O)O)cn(C3CCCC3)c(=O)c21 please
7.78

Entry COc1cccc(NC(=O)c2ccc(CN3CCN(c4ccccc4)CC3)cc2)c1 please
-48.8

Entry O=C(Nc1cccc(C(=O)N2CCN(Cc3ccccc3)CC2)c1)c1ccccc1 please
-16.7

Entry Cc1cccc(NC(=O)N2CCN(Cc3ccccc3)CC2)c1 please
8.14

Entry Cc1cccc(NC(=O)c2ccc(CN3CCN(Cc4ccccc4)CC3)cc2)c1 please
-80.3

Entry O=C(CCNC(=O)c1ccc([N+](=O)[O-])cc1)Nc1ccc(Cl)c(S(=O)(=O)N2CCOCC2)c1 please
-66.2

Entry COc1cc(C2C(C(=O)c3cccs3)=C(O)C(=O)N2CCN2CCOCC2)cc(OC)c1OC (centres unmarked) please
14.3

Entry CC(=O)c1cccc(NCC(=O)Nc2cccc(S(=O)(=O)N3CCCCC3)c2)c1 please
-31.6

Entry CC1CC1C(=O)OCC(=O)Nc1cccc(S(=O)(=O)NC2=NCCCCC2)c1 (centres unmarked) please
-7.64
